- TARGET_OR_SYSTEM: soluble human BACE1 catalytic domain (Homo sapiens (Human), UniProt P56817)
- Sequence (P56817 75-416): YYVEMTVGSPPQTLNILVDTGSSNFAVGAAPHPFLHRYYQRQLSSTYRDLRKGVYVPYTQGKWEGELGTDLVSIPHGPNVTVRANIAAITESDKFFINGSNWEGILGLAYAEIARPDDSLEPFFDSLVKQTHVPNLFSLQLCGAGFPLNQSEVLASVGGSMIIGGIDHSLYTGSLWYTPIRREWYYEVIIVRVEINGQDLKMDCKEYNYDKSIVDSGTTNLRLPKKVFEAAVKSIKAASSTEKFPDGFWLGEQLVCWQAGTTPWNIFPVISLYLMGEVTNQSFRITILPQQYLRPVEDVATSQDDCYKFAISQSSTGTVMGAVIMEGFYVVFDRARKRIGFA
- EXPERIMENTAL_PROTOCOL: BACE1 HTRF FRET Assay
- Assay type: biochemical
- COND: Ki calculated from IC50 using the Cheng-Prusoff equation; QSY7-APPswe-Eu substrate, pH 5.0
pKi: −log10 of the molar value.
Class 1.0: pKi at least 8. Class 0.0: pKi below 8.

>>> assigned_category("CN1C(=N)N[C@](C)(c2cc(NC(=O)c3ccc(C#N)cn3)ccc2F)C2(CC2)S1(=O)=O")
1.0
>>> assigned_category("CN1C(=N)N[C@](C)(c2cc(NC(=O)c3cn4ccc(C#N)cc4n3)ccc2F)C2(CC2)S1(=O)=O")
0.0
>>> assigned_category("CN1C(=N)N[C@](C)(c2cc(NC(=O)c3cnc(OCCF)cn3)ccc2F)C2(CC2)S1(=O)=O")
0.0
>>> assigned_category("COc1cnc(C(=O)Nc2ccc(F)c([C@@]3(C)NC(=N)N(C)S(=O)(=O)C34CC4)c2)c(C)c1")
0.0
>>> assigned_category("Cc1nc(C(=O)Nc2ccc(F)c([C@@]3(C)NC(=N)N(C)S(=O)(=O)C34CC4)c2)no1")
0.0
>>> assigned_category("CN1C(=N)N[C@](C)(c2cc(NC(=O)c3cnsn3)ccc2F)C2(CC2)S1(=O)=O")
0.0

Here is another compound to look at.
Textbook exercise: given the entry `Cc1cc(C#N)cnc1C(=O)Nc1ccc(F)c([C@@]2(C)NC(=N)N(C)S(=O)(=O)C23CC3)c1` , state whether its pKi is greater than or equal to 8.
1.0

---

This section lists pKi readings for soluble human BACE1 catalytic domain (Homo sapiens (Human)).
Keep in mind that pKi stands for -log10 of concentration in molar terms.

For orientation, consider the following solved cases.
>>> numeric_readout("CN1C(=N)N[C@](C)(c2cc(NC(=O)c3ccc(C(F)(F)F)cn3)ccc2F)C2(CC2)S1(=O)=O [Example 1f]")
8.10
>>> numeric_readout("CN1C(=N)N[C@](C)(c2cc(NC(=O)c3ncc(C(F)(F)F)cn3)ccc2F)C2(CC2)S1(=O)=O [Example 1i]")
7.33
>>> numeric_readout("CN1C(=N)N[C@](C)(c2cc(NC(=O)c3ccn(C(F)F)n3)ccc2F)C2(CC2)S1(=O)=O [Example 1l]")
8.30
>>> numeric_readout("CN1C(=N)N[C@](C)(c2cc(NC(=O)c3ncc(Cl)cc3F)ccc2F)C2(CC2)S1(=O)=O [Example 1o]")
8.22
>>> numeric_readout("COc1ccc(C(=O)Nc2ccc(F)c([C@@]3(C)NC(=N)N(C)S(=O)(=O)C34CC4)c2)nc1 [Example 1a]")
7.74
>>> numeric_readout("CN1C(=N)N[C@](C)(c2cc(NC(=O)c3cn4ccsc4n3)ccc2F)C2(CC2)S1(=O)=O [Example 1v]")
6.63

Observed pKi, soluble human BACE1 catalytic domain (Homo sapiens (Human)), CN1C(=N)N[C@](C)(c2cc(NC(=O)c3cnc(C(F)(F)F)cn3)ccc2F)C2(CC2)S1(=O)=O [Example 1p] : 7.24

---

Reported pKi by item:
- TARGET_OR_SYSTEM: purified human autoBACE-2 (Homo sapiens (Human))
- Sequence (Q9Y5Z0 63-473 limits assumed): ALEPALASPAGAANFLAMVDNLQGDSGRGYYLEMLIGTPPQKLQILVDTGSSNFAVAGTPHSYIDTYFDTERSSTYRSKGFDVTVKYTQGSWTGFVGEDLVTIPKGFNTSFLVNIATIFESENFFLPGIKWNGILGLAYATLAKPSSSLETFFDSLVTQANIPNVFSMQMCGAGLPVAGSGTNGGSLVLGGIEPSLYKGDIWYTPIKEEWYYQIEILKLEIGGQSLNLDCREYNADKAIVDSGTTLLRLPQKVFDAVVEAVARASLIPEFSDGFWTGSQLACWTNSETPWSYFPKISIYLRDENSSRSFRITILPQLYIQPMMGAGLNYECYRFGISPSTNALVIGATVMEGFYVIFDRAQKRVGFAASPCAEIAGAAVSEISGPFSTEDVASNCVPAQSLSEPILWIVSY
Keep in mind that pKi stands for -log10 of concentration in molar terms.

For orientation, consider the following solved cases.
>>> numeric_readout("CN1C(=N)N[C@](C)(c2cc(NC(=O)c3ccc(C#N)cn3)ccc2F)C2(CC2)S1(=O)=O")
7.77
>>> numeric_readout("COc1cnc(C(=O)Nc2ccc(F)c([C@@]3(C)NC(=N)N(C)S(=O)(=O)C34CC4)c2)cn1")
7.25

Observed pKi, purified human autoBACE-2 (Homo sapiens (Human)), `CN1C(=N)N[C@](C)(c2cc(NC(=O)c3ncc(C(F)(F)F)cn3)ccc2F)C2(CC2)S1(=O)=O` : 6.97

Observed pKi, purified human autoBACE-2 (Homo sapiens (Human)), `COc1cnc(C(=O)Nc2ccc(F)c([C@@]3(C)NC(=N)N(C)S(=O)(=O)C34CC4)c2)c(C)c1` : 8.00
